Assignment: determine reported self-splicing fitness (ln) for the given sequences.
assay: self-splicing fitness, log relative to wild type (ln ratio); higher = more splicing; Tetrahymena group I intron in knt gene, E. coli kanamycin selection, DiMSum; sequences stand for … in CUCUCU…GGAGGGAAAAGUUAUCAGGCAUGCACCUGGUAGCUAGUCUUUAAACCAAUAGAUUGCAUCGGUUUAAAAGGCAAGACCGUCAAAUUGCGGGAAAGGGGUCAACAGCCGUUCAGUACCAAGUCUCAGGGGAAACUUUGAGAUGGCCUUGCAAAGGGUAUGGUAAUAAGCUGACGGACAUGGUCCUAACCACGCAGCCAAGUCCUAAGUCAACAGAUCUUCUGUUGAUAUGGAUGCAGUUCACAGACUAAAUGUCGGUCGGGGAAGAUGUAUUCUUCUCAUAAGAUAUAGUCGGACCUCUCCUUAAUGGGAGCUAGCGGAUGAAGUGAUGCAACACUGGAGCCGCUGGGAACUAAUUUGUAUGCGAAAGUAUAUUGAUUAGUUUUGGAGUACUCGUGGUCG; details: 37 °C;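 further: selection with 25 µg/mL kanamycin versus none on LB agar overnight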

Please review the following examples before continuing.
>  <sequence string>
UCUAAGCAAUAUUACGUCCG

>  <self-splicing fitness (ln)>
-0.55

$$$$
>  <sequence string>
GACUAGCAAUAUUACGCGUC

>  <self-splicing fitness (ln)>
-2.78

$$$$
>  <sequence string>
UCGUAGCAAUAUUACGAGAC

>  <self-splicing fitness (ln)>
-3.18

$$$$
>  <sequence string>
CGGUAGCAAUAUUACGAGUU

>  <self-splicing fitness (ln)>
-3.26

$$$$
>  <sequence string>
CUUUAGCAAUAUUACGUGCA

>  <self-splicing fitness (ln)>
-2.75

$$$$

Hello, I would appreciate it if you could give self-splicing fitness (ln) for each entry below.
1. CAGUAGCAAUAUUACGAGAG
2. UAUAAGCAAUAUUACGACGC
3. ACCGAGCAAUAUUACGUGGU
4. GGGAAGCAAUAUUACGGUCG
5. AGAUAGCAAUAUUACGCAGA

Result:
[-2.76, -1.19, -2.05, -0.403, -2.32]

====

experiment: self-splicing fitness, log relative to wild type (ln ratio); higher = more splicing; Tetrahymena group I intron in knt gene, E. coli kanamycin selection, DiMSum; sequences stand for … in CUCUCU…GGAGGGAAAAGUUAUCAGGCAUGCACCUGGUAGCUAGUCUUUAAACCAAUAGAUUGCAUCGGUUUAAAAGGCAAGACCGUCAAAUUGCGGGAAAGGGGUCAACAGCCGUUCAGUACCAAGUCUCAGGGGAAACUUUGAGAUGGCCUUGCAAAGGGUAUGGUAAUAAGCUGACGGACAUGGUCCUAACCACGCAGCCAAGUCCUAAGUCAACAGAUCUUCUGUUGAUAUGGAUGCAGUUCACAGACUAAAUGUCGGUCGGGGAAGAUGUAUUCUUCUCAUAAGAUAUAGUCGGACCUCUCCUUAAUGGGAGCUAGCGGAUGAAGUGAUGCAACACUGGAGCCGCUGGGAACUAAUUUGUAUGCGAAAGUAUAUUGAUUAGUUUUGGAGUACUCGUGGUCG; settings: 37 °C
Assignment: determine reported self-splicing fitness (ln) for the given sequences.
Answers are plain numbers.

>  <sequence string>
AACUAGCAAUAUUACGGUUA

>  <value type>
self-splicing fitness (ln)

>  <recorded measurement>
-0.482

$$$$
>  <sequence string>
CAGCAGCAAUAUUACGUCGC

>  <value type>
self-splicing fitness (ln)

>  <recorded measurement>
-2.21

$$$$
>  <sequence string>
AUGCAGCAAUAUUACGGCUU

>  <value type>
self-splicing fitness (ln)

>  <recorded measurement>
0.254

$$$$
>  <sequence string>
CGCUAGCAAUAUUACGGUAU

>  <value type>
self-splicing fitness (ln)

>  <recorded measurement>
-2.39

$$$$
>  <sequence string>
AUCCAGCAAUAUUACGCAGG

>  <value type>
self-splicing fitness (ln)

>  <recorded measurement>
-2.7

$$$$

Hello, I would appreciate it if you could give self-splicing fitness (ln) for each entry below.
1. UUGGAGCAAUAUUACGUCUC
2. CAAUAGCAAUAUUACGCCGG
3. CUGAAGCAAUAUUACGCGUG
4. GUCCAGCAAUAUUACGUAAC

Result:
1. -2.41
2. 0.077
3. 0.0264
4. -0.649

Hello, I would appreciate it if you could give self-splicing fitness (ln) for each entry below.
1. UUGCAGCAAUAUUACGAAGU
2. CUCGAGCAAUAUUACGCAUG
3. CCUGAGCAAUAUUACGGUGA
4. UGAAAGCAAUAUUACGUCGC
5. CUUCAGCAAUAUUACGCUAC
6. GGCUAGCAAUAUUACGGAUA
7. GGACAGCAAUAUUACGAGGC

Result:
1. -1.75
2. -3.58
3. -2.64
4. -2.98
5. -2.25
6. -0.492
7. -1.32

Hello, I would appreciate it if you could give self-splicing fitness (ln) for each entry below.
1. GCGCAGCAAUAUUACGGCAG
2. UUAAAGCAAUAUUACGUUUU
3. CUGCAGCAAUAUUACGCCUA

Result:
1: -2.85; 2: -2.27; 3: -0.55

Hello, I would appreciate it if you could give self-splicing fitness (ln) for each entry below.
1. GCCCAGCAAUAUUACGAACU
2. UCUGAGCAAUAUUACGGGAA
3. ACUGAGCAAUAUUACGCCAG
4. UGUGAGCAAUAUUACGUGGG
5. UCCGAGCAAUAUUACGAUAA
6. CAUCAGCAAUAUUACGUUUG

Result:
1. -1
2. -1.82
3. -2.78
4. -2.34
5. -2.41
6. -0.71

Hello, I would appreciate it if you could give self-splicing fitness (ln) for each entry below.
1. CGAAAGCAAUAUUACGUAAC
2. GGUGAGCAAUAUUACGGUAU
3. CACCAGCAAUAUUACGUACA

Result:
1. -0.987
2. -3
3. -1.59

Hello, I would appreciate it if you could give self-splicing fitness (ln) for each entry below.
1. UCCCAGCAAUAUUACGAAUC
2. GCCUAGCAAUAUUACGAGCU
3. CUAGAGCAAUAUUACGGACA
4. ACUCAGCAAUAUUACGGCAU
5. CUGCAGCAAUAUUACGCUAG
6. ACUUAGCAAUAUUACGCAAA

Result:
-1.93
-1.51
-1.96
-0.293
-2.02
-1.24
